Experiment: SPR (Biacore) Protein A mAb capture, Compound A injected
Details: 37° C., binding to Compound A, apparent affinity, for rank ordering only, read-out: KD
experimental_readout: Kd

Request: For the molecule 26D5-75229-343-A10-mAb: human IgG1f/kappa mAb; VH SEQ ID NO: 52, VL SEQ ID NO: 84 (antibody, V domains shown) VH: EVQLVESGGGLIQPGGSLRLSCAASGFTVSSNAMSWVRQAPGKGLEWVSYIYPGGRTYYADSVKGRFTISRDNSKNTLYLQMNSLRAEDTAVYYCARAGFGGPDYWGQGTLVTVSS VL: DIQMTQSPSSVSASVGDRVTITCRASQGISSNLAWYQQKPGKAPKLLIYAASSLQSGVPSRFSGSGSGTDFTLTISSLQPEDFATYYCQQANQFPLTFGGGTKVEIK , what Kd is on record?
Result: < 70 pM
